Measured viability, T/C values are reported for all entries that follow.
System: 521955-158-R7-J2-PDC spheroids, viability % test/control
TEST SUMMARY: Anticancer human tumor 521955-158-R7-J2-PDC patient-derived pancreatic carcinoma cell line growth inhibition [TAK]
CONDITION SET: second compound 30 µM; first compound 0.0316 µM; active compounds read low; spheroids with HUVEC and MSC
Number only, in %; omit the unit.

Example entries and their recorded answers appear below.
>>> val("COC1CC2CCC(C)C(O)(O2)C(=O)C(=O)N2CCCCC2C(=O)OC(C(C)CC2CCC(OCCO)C(OC)C2)CC(=O)C(C)C=C(C)C(O)C(OC)C(=O)C(C)CC(C)C=CC=CC=C1C (stereo unspecified) + CC(C)NCC(C(=O)N1CCN(c2ncnc3c2C(C)CC3O)CC1)c1ccc(Cl)cc1")
104
>>> val("CC(C)n1nc(-c2ccc3oc(N)nc3c2)c2c(N)ncnc21 + CC(C)NCC(C(=O)N1CCN(c2ncnc3c2C(C)CC3O)CC1)c1ccc(Cl)cc1")
117
>>> val("CC(C)(C)c1nc(-c2cccc(NS(=O)(=O)c3c(F)cccc3F)c2F)c(-c2ccnc(N)n2)s1 + CC(C)NCC(C(=O)N1CCN(c2ncnc3c2C(C)CC3O)CC1)c1ccc(Cl)cc1")
111
>>> val("CC(C)CC(NC(=O)CNC(=O)c1cc(Cl)ccc1Cl)B1OC(=O)CC(CC(=O)O)(C(=O)O)O1 (stereo unspecified) + CC(C)NCC(C(=O)N1CCN(c2ncnc3c2C(C)CC3O)CC1)c1ccc(Cl)cc1")
52.4

Value of measured viability, T/C for the entry COc1c(OCCCN2CCOCC2)ccc2c3n(c(=NC(=O)c4cnc(N)nc4)nc12)CCN3 + CC(C)NCC(C(=O)N1CCN(c2ncnc3c2C(C)CC3O)CC1)c1ccc(Cl)cc1 : 27.8

Value of measured viability, T/C for the entry Cc1nc(NC(=O)N2CCCC2C(N)=O)sc1-c1ccnc(C(C)(C)C(F)(F)F)c1 (stereo unspecified) + CC(C)NCC(C(=O)N1CCN(c2ncnc3c2C(C)CC3O)CC1)c1ccc(Cl)cc1 : 93.7

###

Tested on: 521955-158-R7-J2-PDC spheroids, viability % test/control
TEST SUMMARY: Anticancer human tumor 521955-158-R7-J2-PDC cell line growth inhibition [TAK];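 further: spheroids exposed to compound for 7 days before readout; 100% = DMSO vehicle control wells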
CONDITION SET: second compound 9.49 µM; first compound 1 µM; active compounds read low; spheroids with HUVEC and MSC
VALUE TYPE: viability, T/C (%)
Number only, in %; omit the unit.

Example entries and their recorded answers appear below.
>>> val("CCCS(=O)(=O)Nc1ccc(F)c(C(=O)c2c[nH]c3ncc(-c4ccc(Cl)cc4)cc23)c1F + CC(C)NCC(C(=O)N1CCN(c2ncnc3c2C(C)CC3O)CC1)c1ccc(Cl)cc1")
107
>>> val("COc1c(OCCCN2CCOCC2)ccc2c3n(c(=NC(=O)c4cnc(N)nc4)nc12)CCN3 + CC(C)NCC(C(=O)N1CCN(c2ncnc3c2C(C)CC3O)CC1)c1ccc(Cl)cc1")
12.2
>>> val("Cc1nc(NC(=O)N2CCCC2C(N)=O)sc1-c1ccnc(C(C)(C)C(F)(F)F)c1 (centres undefined) + CC(C)NCC(C(=O)N1CCN(c2ncnc3c2C(C)CC3O)CC1)c1ccc(Cl)cc1")
43

Turning now to a further record.
With 521955-158-R7-J2-PDC spheroids, viability % test/control as the test system, CC(C)(C)c1nc(-c2cccc(NS(=O)(=O)c3c(F)cccc3F)c2F)c(-c2ccnc(N)n2)s1 + CC(C)NCC(C(=O)N1CCN(c2ncnc3c2C(C)CC3O)CC1)c1ccc(Cl)cc1 showed viability, T/C of 119

###

System: 521955-158-R7-J2-PDC spheroids, viability % test/control
TEST SUMMARY: Anticancer human tumor 521955-158-R7-J2-PDC cell line growth inhibition [TAK];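 further: spheroids exposed to compound for 7 days before readout; 100% = DMSO vehicle control wells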
CONDITION SET: second compound 0.949 µM; first compound 0.00316 µM; active compounds read low; spheroids with HUVEC and MSC
Measured viability, T/C values are reported for all entries that follow.

>>> val("CC(C)CC(NC(=O)CNC(=O)c1cc(Cl)ccc1Cl)B1OC(=O)CC(CC(=O)O)(C(=O)O)O1 (stereo not given) + CC(C)NCC(C(=O)N1CCN(c2ncnc3c2C(C)CC3O)CC1)c1ccc(Cl)cc1")
"87.6%"
>>> val("CC(C)CC(NC(=O)C(Cc1ccccc1)NC(=O)c1cnccn1)B(O)O (stereo not given) + CC(C)NCC(C(=O)N1CCN(c2ncnc3c2C(C)CC3O)CC1)c1ccc(Cl)cc1")
"92.2%"
>>> val("CC(C)n1nc(-c2ccc3oc(N)nc3c2)c2c(N)ncnc21 + CC(C)NCC(C(=O)N1CCN(c2ncnc3c2C(C)CC3O)CC1)c1ccc(Cl)cc1")
"100%"
>>> val("COC1CC2CCC(C)C(O)(O2)C(=O)C(=O)N2CCCCC2C(=O)OC(C(C)CC2CCC(OCCO)C(OC)C2)CC(=O)C(C)C=C(C)C(O)C(OC)C(=O)C(C)CC(C)C=CC=CC=C1C (stereo not given) + CC(C)NCC(C(=O)N1CCN(c2ncnc3c2C(C)CC3O)CC1)c1ccc(Cl)cc1")
"100%"

Turning now to a further record.
With 521955-158-R7-J2-PDC spheroids, viability % test/control as the test system, COc1c(OCCCN2CCOCC2)ccc2c3n(c(=NC(=O)c4cnc(N)nc4)nc12)CCN3 + CC(C)NCC(C(=O)N1CCN(c2ncnc3c2C(C)CC3O)CC1)c1ccc(Cl)cc1 showed viability, T/C of 81%

###

Measured viability, T/C values are reported for all entries that follow.
Test system: 521955-158-R7-J2-PDC spheroids, viability % test/control
TEST SUMMARY: Anticancer human tumor 521955-158-R7-J2-PDC cell line growth inhibition [TAK];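 further: spheroids exposed to compound for 7 days before readout; 100% = DMSO vehicle control wells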
CONDITION SET: second compound 0.3 µM; first compound 0.000316 µM; active compounds read low; spheroids with HUVEC and MSC
Number only, in %; omit the unit.

>>> val("CC(C)n1nc(-c2ccc3oc(N)nc3c2)c2c(N)ncnc21 + CC(C)NCC(C(=O)N1CCN(c2ncnc3c2C(C)CC3O)CC1)c1ccc(Cl)cc1")
112
>>> val("CC(C)CC(NC(=O)CNC(=O)c1cc(Cl)ccc1Cl)B1OC(=O)CC(CC(=O)O)(C(=O)O)O1 (centres undefined) + CC(C)NCC(C(=O)N1CCN(c2ncnc3c2C(C)CC3O)CC1)c1ccc(Cl)cc1")
103
>>> val("COC1CC2CCC(C)C(O)(O2)C(=O)C(=O)N2CCCCC2C(=O)OC(C(C)CC2CCC(OCCO)C(OC)C2)CC(=O)C(C)C=C(C)C(O)C(OC)C(=O)C(C)CC(C)C=CC=CC=C1C (centres undefined) + CC(C)NCC(C(=O)N1CCN(c2ncnc3c2C(C)CC3O)CC1)c1ccc(Cl)cc1")
103

Turning now to a further record.
Value of measured viability, T/C for the entry CC(C)CC(NC(=O)C(Cc1ccccc1)NC(=O)c1cnccn1)B(O)O (centres undefined) + CC(C)NCC(C(=O)N1CCN(c2ncnc3c2C(C)CC3O)CC1)c1ccc(Cl)cc1 : 92

###

Tested on: 521955-158-R7-J2-PDC spheroids, viability % test/control
TEST SUMMARY: Anticancer human tumor 521955-158-R7-J2-PDC cell line growth inhibition [TAK];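 further: spheroids exposed to compound for 7 days before readout; 100% = DMSO vehicle control wells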
CONDITION SET: second compound 30 µM; first compound 1 µM; active compounds read low; spheroids with HUVEC and MSC
Measured viability, T/C values are reported for all entries that follow.
Number only, in %; omit the unit.

With 521955-158-R7-J2-PDC spheroids, viability % test/control as the test system, CCCS(=O)(=O)Nc1ccc(F)c(C(=O)c2c[nH]c3ncc(-c4ccc(Cl)cc4)cc23)c1F + CC(C)NCC(C(=O)N1CCN(c2ncnc3c2C(C)CC3O)CC1)c1ccc(Cl)cc1 showed viability, T/C of 119

With 521955-158-R7-J2-PDC spheroids, viability % test/control as the test system, COc1c(OCCCN2CCOCC2)ccc2c3n(c(=NC(=O)c4cnc(N)nc4)nc12)CCN3 + CC(C)NCC(C(=O)N1CCN(c2ncnc3c2C(C)CC3O)CC1)c1ccc(Cl)cc1 showed viability, T/C of 11.5

With 521955-158-R7-J2-PDC spheroids, viability % test/control as the test system, CC(C)(C)c1nc(-c2cccc(NS(=O)(=O)c3c(F)cccc3F)c2F)c(-c2ccnc(N)n2)s1 + CC(C)NCC(C(=O)N1CCN(c2ncnc3c2C(C)CC3O)CC1)c1ccc(Cl)cc1 showed viability, T/C of 136

With 521955-158-R7-J2-PDC spheroids, viability % test/control as the test system, Cc1nc(NC(=O)N2CCCC2C(N)=O)sc1-c1ccnc(C(C)(C)C(F)(F)F)c1 (centres undefined) + CC(C)NCC(C(=O)N1CCN(c2ncnc3c2C(C)CC3O)CC1)c1ccc(Cl)cc1 showed viability, T/C of 43.2
